target: OsWRKY34 (Oryza sativa, UniProt Q0JBA9 1-250); experiment: protein-binding microarray (RPBM); PBS, 2% BSA, 51.3 ng/ul salmon testes DNA, 50 uM zinc acetate, 200 nM TF, 25 C, 1 h; high values mean tight binding; conditions: protein: recombinant; tags: N-terminal polyhistidine and DsRed monomer fusion (pET32a); label: CyDye5-dUTP incorporated in the synthesized complementary strand; 3' TTTTT single-stranded linker to array surface; dsDNA, one strand shown
Sequence (Q0JBA9 entry or part of it): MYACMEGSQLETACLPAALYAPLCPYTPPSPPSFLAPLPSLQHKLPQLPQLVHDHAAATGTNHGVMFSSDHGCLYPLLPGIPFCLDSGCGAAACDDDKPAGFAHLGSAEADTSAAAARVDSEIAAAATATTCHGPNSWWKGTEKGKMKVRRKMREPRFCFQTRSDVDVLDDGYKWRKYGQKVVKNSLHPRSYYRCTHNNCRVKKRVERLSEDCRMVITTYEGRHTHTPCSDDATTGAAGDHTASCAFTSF
Over roughly 68,000 sequences, “fluorescence intensity (a.u.)” has its median near 9,100; the highest 2% begin near 16,000. This excerpt belongs to a sample that is enriched for the highest values.
quantity_measured: binding signal

1. CTCCTCGGGCTAAAAGTGGTAATACGCGTTTCTCAAGCTTCGGAGTCACCTAGTGCAG    9930 fluorescence intensity (a.u.)
2. AATTACTATAACACATCTTCCTAACAAATGCACCTCAATACGGAGTCACCTAGTGCAG    8050 fluorescence intensity (a.u.)
3. TGCATCTCGCCTTATCCCCGCGCCGGCGCTAGGCGAATCGCGGAGTCACCTAGTGCAG    8340 fluorescence intensity (a.u.)
4. CTTTCGCGTTTTCCTTGGGTTTGACAATGGGCTACATTGCCGGAGTCACCTAGTGCAG    9400 fluorescence intensity (a.u.)

Lab note: next sequence to report on.
# value lookup — system OsWRKY34 (Oryza sativa, UniProt Q0JBA9 1-250), readout binding signal, item "TACTCCGTACAAATTTTCTTCTGGATCCCACCTCTGCTCTCGGAGTCACCTAGTGCAG"
9050 fluorescence intensity (a.u.)

====

target: OsWRKY34 (Oryza sativa, UniProt Q0JBA9 1-250); test: protein-binding microarray (RPBM); PBS, 2% BSA, 51.3 ng/ul salmon testes DNA, 50 uM zinc acetate, 200 nM TF, 25 C, 1 h; high values mean tight binding; conditions: protein: recombinant; tags: N-terminal polyhistidine and DsRed monomer fusion (pET32a); label: CyDye5-dUTP incorporated in the synthesized complementary strand; 3' TTTTT single-stranded linker to array surface; dsDNA, one strand shown
The full ranking holds about 68,000 sequences; the median of “fluorescence intensity (a.u.)” is about 9,100, and the highest 2% start at about 16,000. The entries come from a sample that favours the highest values as a whole.
quantity_measured: binding signal

1. ACTAAGTGCGTGATTGTTTCAGATTTGTTTGGGTTGCGGTCGGAGTCACCTAGTGCAG    9410 fluorescence intensity (a.u.)
2. CTGCCTGTCCCTTTCCTGCATCCATCCATCCATCTTGATCCGGAGTCACCTAGTGCAG    10600 fluorescence intensity (a.u.)
3. TCCTGTGCCTCTCTCATGGTGTGGGTGTCTGTGTCTTTGACGGAGTCACCTAGTGCAG    9040 fluorescence intensity (a.u.)
4. CACTTACACTTTCATTTTCGCTTCATGTAAAATAGTCAACCGGAGTCACCTAGTGCAG    8980 fluorescence intensity (a.u.)
5. GCATCTCCACAGTCCACACTGTGCGCGCCATTCTTATCCTCGGAGTCACCTAGTGCAG    14100 fluorescence intensity (a.u.)

Could you share which binding signal value was measured for "CTTTCCTTGCGCTGTTCTTCGCTTCATCCATCCATCAGCTCGGAGTCACCTAGTGCAG" ?
10800 fluorescence intensity (a.u.)

Repeat for the following sequence: "CAAATTACTTCCTTTTCAAAATCTAGGATACCGTTGACTTCGGAGTCACCTAGTGCAG"
9460 fluorescence intensity (a.u.)

Repeat for the following sequence: "ATTTTTTTTTGGCATAGTTTGTGTTCACTGCAAAAATCACCGGAGTCACCTAGTGCAG"
9080 fluorescence intensity (a.u.)

Repeat for the following sequence: "GCTCCATCTCTCGTCTCGCGCTTCACTCCACATCTGTTTCCGGAGTCACCTAGTGCAG"
18300 fluorescence intensity (a.u.)

Repeat for the following sequence: "AACTTGCGAAAATTTGACTATCAATTAGCTGGGCGATTGACGGAGTCACCTAGTGCAG"
32700 fluorescence intensity (a.u.)

====

target: OsWRKY34 (Oryza sativa, UniProt Q0JBA9 1-250); experiment: protein-binding microarray (RPBM); PBS, 2% BSA, 51.3 ng/ul salmon testes DNA, 50 uM zinc acetate, 200 nM TF, 25 C, 1 h; high values mean tight binding; settings: protein: recombinant; tags: N-terminal polyhistidine and DsRed monomer fusion (pET32a); label: CyDye5-dUTP incorporated in the synthesized complementary strand; 3' TTTTT single-stranded linker to array surface; dsDNA, one strand shown
Over roughly 68,000 sequences, “fluorescence intensity (a.u.)” has its median near 9,100; the highest 2% begin near 16,000. The entries come from a sample that favours the highest values as a whole.
Measured binding signal of individual entries

1. TATATATATGTGTGTGTGTGTGTGTGTGTGTGTGTGTGTGCGGAGTCACCTAGTGCAG    10100 fluorescence intensity (a.u.)

Could you share which binding signal value was measured for "TTGCGTTTTGGGTGGTGAATTTTGATTTTGATTCTTTTTTCGGAGTCACCTAGTGCAG" ?
12700 fluorescence intensity (a.u.)

Repeat for the following sequence: "TATATATATATATATATATATATATATATATGGTGGTGTTCGGAGTCACCTAGTGCAG"
20500 fluorescence intensity (a.u.)

Repeat for the following sequence: "CAGTTTTTGAGGTAGAAGGGTATCATTGTAATTTTGCATCCGGAGTCACCTAGTGCAG"
8850 fluorescence intensity (a.u.)

Repeat for the following sequence: "GGGCGTGGTGGTGGTGGTGGTGGTTATACGGTTTTCGGTTCGGAGTCACCTAGTGCAG"
25900 fluorescence intensity (a.u.)

Repeat for the following sequence: "AATTAACATCACCAATCAGCAATCACCAACCTTGTCATCTCGGAGTCACCTAGTGCAG"
8970 fluorescence intensity (a.u.)

Repeat for the following sequence: "GCTACACCGCACCCACCACAGCCAGACTTGAACTTGTTGACGGAGTCACCTAGTGCAG"
8950 fluorescence intensity (a.u.)

Repeat for the following sequence: "AATGTGACCAAGCCAACTTAACTTATTATACTTCTTAGTTCGGAGTCACCTAGTGCAG"
8680 fluorescence intensity (a.u.)

====

target: OsWRKY34 (Oryza sativa, UniProt Q0JBA9 1-250); assay: protein-binding microarray (RPBM); PBS, 2% BSA, 51.3 ng/ul salmon testes DNA, 50 uM zinc acetate, 200 nM TF, 25 C, 1 h; high values mean tight binding; details: protein: recombinant; tags: N-terminal polyhistidine and DsRed monomer fusion (pET32a); label: CyDye5-dUTP incorporated in the synthesized complementary strand; 3' TTTTT single-stranded linker to array surface; dsDNA, one strand shown
The full ranking holds about 68,000 sequences; the median of “fluorescence intensity (a.u.)” is about 9,100, and the highest 2% start at about 16,000. What follows is part of a selection rich in the highest values, with near analogues and random picks from the rest.
quantity_measured: binding signal

Example entries and their recorded answers appear below.
1. GGTGGGAGTGCGCATTGAGGATAAGCCACTGATGACGTCTCGGAGTCACCTAGTGCAG    8600 fluorescence intensity (a.u.)
2. CCCGTGCTCTTTGTAGATTTACTACCTTTGGACTTGACCTCGGAGTCACCTAGTGCAG    11200 fluorescence intensity (a.u.)
3. CCCTTTCCTTTTCTTTTTTTTTCTCATTTTATCCACAATTCGGAGTCACCTAGTGCAG    9870 fluorescence intensity (a.u.)
4. TTTTCATCTGAGCTTATGTTCCAACTTTTATTTTTAATCACGGAGTCACCTAGTGCAG    8780 fluorescence intensity (a.u.)
5. TTCTTCACCGTTTTGTTTTCTCTGCGCCTCAAATTTCCTTCGGAGTCACCTAGTGCAG    12000 fluorescence intensity (a.u.)
6. TTTGTTGGTTGGTTTGACCCTTCCTAATCCTACCTTTGGTCGGAGTCACCTAGTGCAG    8160 fluorescence intensity (a.u.)
7. GGCATTTGGGTGTTATGCATGCCGGCCGGCCCGTACGTACCGGAGTCACCTAGTGCAG    11700 fluorescence intensity (a.u.)
8. CGTCGACGACGTCTCGATCGATCGGTGGTGGTGGTGGTGGCGGAGTCACCTAGTGCAG    8540 fluorescence intensity (a.u.)
9. AAACAAACACAGAGCTTCTCTCCTCTGTTCTCCTTCTCTGCGGAGTCACCTAGTGCAG    8090 fluorescence intensity (a.u.)
10. TAATGTATGACGCCGTTGACTTTTTGATTAACGTTTGACCCGGAGTCACCTAGTGCAG    34800 fluorescence intensity (a.u.)

Lab note: next sequence to report on.
Could you share which binding signal value was measured for "AGTTTCAGAACTCACCTCTTTATTAATACATTTAGTTGTTCGGAGTCACCTAGTGCAG" ?
8850 fluorescence intensity (a.u.)

FYI, the data here is from paper PMC7819943.
